# assay_target: CDK1/Cyclin B1 (Homo sapiens (Human), UniProt P06493)
# Sequence (P06493 whole entry): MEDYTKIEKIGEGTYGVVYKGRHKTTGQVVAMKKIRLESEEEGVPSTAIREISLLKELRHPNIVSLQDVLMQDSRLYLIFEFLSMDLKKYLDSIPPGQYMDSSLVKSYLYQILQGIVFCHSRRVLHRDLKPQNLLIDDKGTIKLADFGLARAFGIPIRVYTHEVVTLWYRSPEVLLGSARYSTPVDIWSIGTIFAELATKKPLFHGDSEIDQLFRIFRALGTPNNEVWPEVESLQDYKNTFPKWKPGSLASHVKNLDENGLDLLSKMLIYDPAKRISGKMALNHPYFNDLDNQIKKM
# Sequence (P14635 whole entry partner): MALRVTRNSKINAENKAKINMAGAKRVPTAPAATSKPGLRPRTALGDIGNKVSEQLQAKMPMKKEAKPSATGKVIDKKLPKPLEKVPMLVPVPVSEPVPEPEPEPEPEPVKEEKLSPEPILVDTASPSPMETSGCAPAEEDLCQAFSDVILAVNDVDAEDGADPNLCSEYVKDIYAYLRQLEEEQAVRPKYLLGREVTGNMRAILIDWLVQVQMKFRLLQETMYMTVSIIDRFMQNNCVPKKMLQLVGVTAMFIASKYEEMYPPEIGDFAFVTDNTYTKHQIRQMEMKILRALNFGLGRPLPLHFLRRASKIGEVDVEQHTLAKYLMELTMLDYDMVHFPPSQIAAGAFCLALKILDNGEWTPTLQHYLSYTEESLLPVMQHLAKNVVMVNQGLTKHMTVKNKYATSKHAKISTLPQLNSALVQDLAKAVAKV
# procedure_text: CDK1/Cyclin B1 ADP-Glo Kinase Assay
# Assay type: biochemical
# cond: ADP-Glo, 80 uM ATP; read-out: CDK1 Cyclin B1 IC50
pIC50: −log10 of the molar value.
This section presents compounds with their documented pIC50 values.

`Cc1cc2cnc(NC3CCN(S(=O)(=O)C4CC4)CC3)nc2c(N2CC(N3CC(F)C3)C2)n1` tested on CDK1/Cyclin B1 (Homo sapiens (Human), UniProt P06493) gave pIC50: 5.70 to 6.30

`Cc1cc2cnc(Nc3ccc4c(c3)CN(S(C)(=O)=O)C4)nc2c(N2CC3(CN(C)C3)C2)n1` tested on CDK1/Cyclin B1 (Homo sapiens (Human), UniProt P06493) gave pIC50: 5.70 to 6.30

CS(=O)(=O)N1CCC(Nc2ncc3cc(C4CC4)nc(C4CC5(CNCCO5)C4)c3n2)CC1 (stereo not drawn) tested on CDK1/Cyclin B1 (Homo sapiens (Human), UniProt P06493) gave pIC50: > 6.70

`COCCN1CC2(C1)CN(c1nc(C3CC3)cc3cnc(NC4CCN(S(=O)(=O)CC5CCC5)CC4)nc13)C2` tested on CDK1/Cyclin B1 (Homo sapiens (Human), UniProt P06493) gave pIC50: 5.70 to 6.30

Cc1cc2cnc(Nc3ccc(N4CC5(CN(C)C5)C4)cc3)nc2c(N2CCC3(C2)CC3(F)F)n1 (stereo not drawn) tested on CDK1/Cyclin B1 (Homo sapiens (Human), UniProt P06493) gave pIC50: 5.70 to 6.30

`COC1CC2(C1)CN(c1nc(C)cc3cnc(NC4CCN(S(C)(=O)=O)CC4)nc13)C2` tested on CDK1/Cyclin B1 (Homo sapiens (Human), UniProt P06493) gave pIC50: 6.30 to 6.70

`Cc1cc2cnc(NC3CCN(S(=O)(=O)C4CC4)CC3)nc2c(N2CC(C#N)(CCF)C2)n1` tested on CDK1/Cyclin B1 (Homo sapiens (Human), UniProt P06493) gave pIC50: < 5.70

`COC1CC2(C1)CN(c1nc(C3CC3)cc3cnc(NC4CCN(S(C)(=O)=O)CC4)nc13)C2` tested on CDK1/Cyclin B1 (Homo sapiens (Human), UniProt P06493) gave pIC50: < 5.70

CS(=O)(=O)N1CCC(Nc2ncc3ccnc(N4CCC(C#N)(C5CC5)C4)c3n2)CC1 (stereo not drawn) tested on CDK1/Cyclin B1 (Homo sapiens (Human), UniProt P06493) gave pIC50: > 6.70

`CS(=O)(=O)N1CCC(Nc2ncc3ccnc(N4CC5(C4)CN(C4CC4)C5)c3n2)CC1` tested on CDK1/Cyclin B1 (Homo sapiens (Human), UniProt P06493) gave pIC50: 6.30 to 6.70

`Cc1cc2cnc(NC3CCN(S(=O)(=O)c4cnn(C)c4)CC3)nc2c(N2CC3(CCNCC3(F)F)C2)n1` tested on CDK1/Cyclin B1 (Homo sapiens (Human), UniProt P06493) gave pIC50: > 6.70

Cc1cc2cnc(Nc3cnn(CC4(N(C)C)CC4)c3)nc2c(N2CCC(C#N)(C3CC3)C2)n1 (stereo not drawn) tested on CDK1/Cyclin B1 (Homo sapiens (Human), UniProt P06493) gave pIC50: < 5.70

`CS(=O)(=O)N1CCC(Nc2ncc3cc(C(F)F)nc(N4CC5(CCNCC5(F)F)C4)c3n2)CC1` tested on CDK1/Cyclin B1 (Homo sapiens (Human), UniProt P06493) gave pIC50: > 6.70

`Cc1cc2cnc(NC3CCN(S(=O)(=O)C4CC4)CC3)nc2c(N2CC(F)(F)C3(CNC3)C2)n1` tested on CDK1/Cyclin B1 (Homo sapiens (Human), UniProt P06493) gave pIC50: > 6.70

`Cc1cc2cnc(NC3CCN(S(C)(=O)=O)CC3)nc2c(N2CC3(CC(O)C3)C2)n1` tested on CDK1/Cyclin B1 (Homo sapiens (Human), UniProt P06493) gave pIC50: 5.70 to 6.30

====

# assay_target: CDK2/Cyclin E1 (Homo sapiens (Human), UniProt P24941)
# procedure_text: CDK2/Cyclin E1 Full length ADP-Glo Kinase Assay
# cond: 20 uM ATP, read-out: CDK2/ CyclinE1 IC50
measurement_name: IC50

Use the examples below as a reference point.
molecule	result
CN1CCC(n2cc(Nc3ncc4ccnc(N5CCC6(C5)CC6(F)F)c4n3)cn2)CC1 (stereo not shown) [Compound 20]	< 0.2 µM
Cc1cc2cnc(NC3CCN(S(=O)(=O)C4CC4)CC3)nc2c(N2CC3(CCNC3)C2)n1 [Example 25]	< 0.2 µM
CN1Cc2ccc(Nc3ncc4ccnc(N5CCC6(C5)CC6(F)F)c4n3)cc2C1 (stereo not shown) [Compound 22]	< 0.2 µM
Cc1cc2cnc(Nc3cnn(C4CC5(C4)CN(C)C5)c3)nc2c(N2CC3(C2)CN(S(C)(=O)=O)C3)n1 [Compound 26]	0.2 to 0.5 µM
[2H]C([2H])([2H])N1CC2(CN(c3nc(C)cc4cnc(NC5CCN(S(=O)(=O)c6cnn(C)c6)CC5)nc34)CC2(F)F)C1 [Example 11]	< 0.2 µM
Cc1cc2cnc(NC3CCN(S(=O)(=O)C4CC4)CC3)nc2c(N2CC(N3CC(F)C3)C2)n1 [Compound 72]	< 0.2 µM
Cc1cc2cnc(Nc3ccc(CS(C)(=O)=O)cc3)nc2c(N2CC(O)(C3CC3)C2)n1 [Compound 83]	< 0.2 µM
FC(F)c1cc2cnc(Nc3ccc4c(c3)CN(C3CC3)C4)nc2c(N2CC3(CCNC3)C2)n1 [Compound 50]	< 0.2 µM

CCN1CC2(C1)CN(c1ccc(Nc3ncc4ccnc(N5CCC6(C5)CC6(F)F)c4n3)nc1)C2 (stereo not shown) [Compound 21] tested on CDK2/Cyclin E1 (Homo sapiens (Human), UniProt P24941) gave IC50: 0.2 to 0.5 µM

Cc1cc2cnc(NC3CCN(S(=O)(=O)C4CC4)CC3)nc2c(N2CC3(CNC3)C2)n1 [Compound 32] tested on CDK2/Cyclin E1 (Homo sapiens (Human), UniProt P24941) gave IC50: < 0.2 µM

Cc1cc2cnc(NC3CCN(S(C)(=O)=O)CC3)nc2c(C2CC(C)(CO)C2)n1 (stereo not shown) [Compound 69] tested on CDK2/Cyclin E1 (Homo sapiens (Human), UniProt P24941) gave IC50: < 0.2 µM

====

# assay_target: CDK6/Cyclin D3 (Homo sapiens (Human), UniProt Q00534)
# Sequence (Q00534 whole entry): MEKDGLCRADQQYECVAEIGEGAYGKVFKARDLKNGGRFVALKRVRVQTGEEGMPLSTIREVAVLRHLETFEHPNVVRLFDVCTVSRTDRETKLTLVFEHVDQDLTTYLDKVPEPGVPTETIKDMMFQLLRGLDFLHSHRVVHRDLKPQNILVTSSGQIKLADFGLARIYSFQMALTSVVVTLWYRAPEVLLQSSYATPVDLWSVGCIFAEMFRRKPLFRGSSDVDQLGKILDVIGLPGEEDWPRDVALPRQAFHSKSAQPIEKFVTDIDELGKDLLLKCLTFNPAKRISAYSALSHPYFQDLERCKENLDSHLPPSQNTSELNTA
# Sequence (P30281 whole entry partner): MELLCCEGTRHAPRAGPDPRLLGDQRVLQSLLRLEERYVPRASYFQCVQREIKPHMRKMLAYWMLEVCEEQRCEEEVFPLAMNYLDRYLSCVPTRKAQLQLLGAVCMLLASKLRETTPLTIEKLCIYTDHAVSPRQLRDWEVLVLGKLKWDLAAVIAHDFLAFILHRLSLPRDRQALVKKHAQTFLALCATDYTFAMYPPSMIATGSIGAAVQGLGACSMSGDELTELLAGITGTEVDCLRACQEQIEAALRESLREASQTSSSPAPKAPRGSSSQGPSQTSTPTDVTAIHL
# procedure_text: CDK6/Cyclin D3 ADP-Glo Kinase Assay
# cond: 100 uM ATP, read-out: CDK6/ CyclinD3 IC50
pIC50: −log10 of the molar value.
This section presents compounds with their documented pIC50 values.

Use the examples below as a reference point.
compound	pIC50
CS(=O)(=O)N1CCC(Nc2ncc3cc(C(F)F)nc(N4CC5(CCNCC5(F)F)C4)c3n2)CC1 [Compound 90]	> 6.70
Cc1cc2cnc(NC3CCN(S(C)(=O)=O)CC3)nc2c(N2CC(O)(C(F)F)C2)n1 [Compound 91]	> 6.70
Cc1cc2cnc(Nc3cnn(C4CC5(C4)CN(C)C5)c3)nc2c(N2CC3(C2)CN(S(C)(=O)=O)C3)n1 [Compound 26]	5.70 to 6.30

Cc1cc2cnc(NC3CCN(S(C)(=O)=O)CC3)nc2c(N2CC3(CC(O)C3)C2)n1 [Compound 73] tested on CDK6/Cyclin D3 (Homo sapiens (Human), UniProt Q00534) gave pIC50: 6.30 to 6.70

Cc1cc2cnc(NC3CCN(S(=O)(=O)C4CC4)CC3)nc2c(N2CC(N3CC(F)C3)C2)n1 [Compound 72] tested on CDK6/Cyclin D3 (Homo sapiens (Human), UniProt Q00534) gave pIC50: 6.30 to 6.70

Cc1cc2cnc(N[C@@H]3CCOC[C@H]3O)nc2c(N2CC(O)(C3CC3)C2)n1 [Compound 86] tested on CDK6/Cyclin D3 (Homo sapiens (Human), UniProt Q00534) gave pIC50: 6.30 to 6.70

Cc1cc2cnc(NC3CCN(S(C)(=O)=O)CC3)nc2c(N2CCC3(C2)CC(F)(F)C3)n1 [Compound 53] tested on CDK6/Cyclin D3 (Homo sapiens (Human), UniProt Q00534) gave pIC50: > 6.70

Cc1cc2cnc(NC3CCN(S(C)(=O)=O)CC3)nc2c(N2CC3(CNCC3C(F)F)C2)n1 (stereo not drawn) [Compound 100] tested on CDK6/Cyclin D3 (Homo sapiens (Human), UniProt Q00534) gave pIC50: > 6.70

CS(=O)(=O)N1CCC(Nc2ncc3ccnc(N4CCC5(CCOCC5)C4)c3n2)CC1 [Compound 7] tested on CDK6/Cyclin D3 (Homo sapiens (Human), UniProt Q00534) gave pIC50: > 6.70

Cc1cc2cnc(NC3CCN(S(C)(=O)=O)CC3)nc2c(N2CC3(CNC(=O)C3)C2)n1 [Compound 81] tested on CDK6/Cyclin D3 (Homo sapiens (Human), UniProt Q00534) gave pIC50: 6.30 to 6.70

The measurements presented in this section are drawn from patent US20240034731A1.
